- Target desc: Rac1 (Homo sapiens)
- Assay explanation: G-LISA Rac1 activation assay on MDA-MB-435 cell lysates
- Conditions used: read-out: IC50 for inhibition of Rac1 activity; MDA-MB-435 cells, 24 h treatment
Metric: IC50
Answer format: number, then unit.

[ask] May I ask what IC50 has been recorded for CCn1c2ccccc2c2cc(Nc3ccnc(NCCCN4CCOCC4)n3)ccc21 ?
[reply] 1100 nM
